Provenance of the data: PubChem BioAssay (NCI)

Test system: T-47D breast
test protocol: NCI-60 one-dose screen, 48 h (100 = growth as untreated, 0 = no growth, -100 = all killed)
applied conditions: 10 µM unless noted
About 83,000 compounds went through this panel and 20% of them were active in at least one assay; those are over-represented in the sample as a whole.
measurement kind: growth (%)
Respond numerically; units are % and should not be typed.

compound: CCCCCCc1cc2cc(-c3nc4ccccc4[nH]3)c(=Nc3ccccc3C)oc2cc1O
system: T-47D breast
growth / %: 29

Could you please provide reported growth for COc1cc(C2C3=C(COC3=O)N(CCO)c3cc4c(cc32)OCCO4)cc(OC)c1O (stereo not given) ? Thanks!
33.4

Could you please provide reported growth for `Cc1cccc2c(=O)c3c(sc12)c(N1CCNCC1)nc1ccccc13` ? Thanks!
86.9

Could you please provide reported growth for `O=Cc1c(OCc2cnnn2CC(=O)Nc2ccc(Cl)cc2)ccc2ccccc12` ? Thanks!
104

Could you please provide reported growth for `Cn1c(=O)n(C)c2cc(CNCCNc3ccnc4cc(Cl)ccc34)ccc21` ? Thanks!
82.4

###

System: TK-10 renal
test protocol: NCI-60 one-dose screen, 48 h (100 = growth as untreated, 0 = no growth, -100 = all killed)
applied conditions: 10 µM unless noted
This is part of a sample that, as a whole, favours compounds with a hit. Of some 83,000 tested, about 20% had one in any assay.
Recorded measurements of growth, one per entry
Respond numerically; units are % and should not be typed.

compound: COc1cc(NC(=O)CCSc2nc3ccccc3c(=O)n2CCc2ccccn2)cc(OC)c1OC
uom: %
growth: 111
--
compound: Nc1ccc(-c2ccc(-c3ccccc3N)c3[nH]c4ccccc4c23)cc1
uom: %
growth: 23.8

Jot down growth (TK-10 renal) of CC1=NCC2NC(=O)NC(C)=C12 (stereo unspecified) .
95.9

Jot down growth (TK-10 renal) of `CCOC(=O)CSc1c(-c2ccccc2)c2cc(Cl)ccc2[nH]c1=O` .
107

Jot down growth (TK-10 renal) of `COc1ccc2[nH]c(O)c(N=NC(=O)c3oc4ccccc4c3C)c2c1` .
-64

Jot down growth (TK-10 renal) of `NC(CCl)=NCCC[C@H](N)C(=O)O` .
96.7

###

Tested on: U251 CNS
test protocol: NCI-60 one-dose screen, 48 h (100 = growth as untreated, 0 = no growth, -100 = all killed)
applied conditions: 10 µM unless noted
This is part of a sample that, as a whole, favours compounds with a hit. Of some 83,000 tested, about 20% had one in any assay.
Returns Yes if the recorded growth is greater than or equal to 90%, and No otherwise.

The examples below pair each entry with its known result.
input smiles: COc1c2ccoc2c(/C=C/C=O)c2oc(-c3ccccc3)cc(=O)c12
category: No
//
input smiles: Clc1ccc(Nc2scc3[n+]2CCC3)cc1
category: Yes

For this compound, is measured growth 90% or higher? `O=C1c2ccc3c4c(ccc(c24)C(=O)N1CCCCO)C(=O)N(CCCCO)C3=O`
No

For this compound, is measured growth 90% or higher? `O=C(CSc1nc2ccccc2c(=O)n1-c1ccccc1)Nc1ccc(C(=O)/C=C/c2ccc(Cl)cc2)cc1`
Yes

For this compound, is measured growth 90% or higher? `c1ccc2cc3c(Nc4ccc(N5CCOCC5)cc4)ccnc3cc2c1`
Yes

For this compound, is measured growth 90% or higher? `COc1cc(/C=C/C(=O)c2ccc(Nc3nc(NCCO)nc(N4CCOCC4)n3)cc2)cc(OC)c1OC`
No

For this compound, is measured growth 90% or higher? `NNC(=O)CNC(=O)Nc1n[nH]c(=S)s1`
Yes

For this compound, is measured growth 90% or higher? `CC1=C(C(=O)OCC2CCN(C(=O)OC(C)(C)C)CC2)[C@@H](c2cccc(C#N)c2)C2=C(CC(C)(C)CC2=O)N1`
No

###

Test system: K-562 leukemia
test protocol: NCI-60 one-dose screen, 48 h
applied conditions: 10 µM unless noted
This is part of a sample that, as a whole, favours compounds with a hit. Of some 83,000 tested, about 20% had one in any assay. Active and inactive are the calls of the source. How the source made its calls: active means growth percent below 10; inactive means the rest.
Returns: one label drawn from active, inactive

The examples below pair each entry with its known result.
compound: CCOC(=O)c1cnc2ccc(Cl)cc2c1NCCCN(C)C
system: K-562 leukemia
category: active

compound: COc1cc(C2C3=C(COC3=O)N(CCO)c3cc4c(cc32)OCCO4)cc(OC)c1O (stereo not given)
system: K-562 leukemia
category: inactive

compound: CCN1C(=O)N(CC)C2C1NN=c1s/c(=C3\C(=O)N(C(C)C)c4ccccc43)c(=O)n12 (stereo not given)
system: K-562 leukemia
category: active

What classification did `CC(=O)c1ccc(Nc2nc(NCCO)nc(Nc3ccc(Cl)cc3)n2)cc1` end up with in this test?
inactive

What classification did O=C(NN1C(=O)CSC1c1ccc(Cl)cc1)c1[nH]c2ccc(F)cc2c1-c1ccccc1 (stereo not given) end up with in this test?
inactive

What classification did `Cc1ccc(N=NC2C(=O)N(c3ccc(Cl)cc3)N(c3ccc(Cl)cc3)C2=O)cc1` end up with in this test?
inactive

What classification did `Cn1c(=O)n(C)c2cc(CNCCNc3ccnc4cc(Cl)ccc34)ccc21` end up with in this test?
active

What classification did `FC(F)(F)c1cccc(CNC2CCN(CCc3ccccc3)CC2)c1` end up with in this test?
inactive

What classification did `Cc1c(C(=O)OCCO)cc(-c2ccc(Cl)cc2)n1-c1ccc(Cl)cc1Cl` end up with in this test?
inactive

What classification did `O=C(Nc1ccc(I)cc1F)c1cc(F)ccc1O` end up with in this test?
active

###

System: T-47D breast
test protocol: NCI-60 one-dose screen, 48 h (100 = growth as untreated, 0 = no growth, -100 = all killed)
applied conditions: 10 µM unless noted
The panel holds about 83,000 compounds, 20% with a hit somewhere; the sample as a whole holds those more often.
Recorded measurements of growth, one per entry
Respond numerically; units are % and should not be typed.

Could you please provide reported growth for `Cc1cc(OC(=O)c2ccc([N+](=O)[O-])cc2)nc2[nH]c(=O)sc12` ? Thanks!
99.7

Could you please provide reported growth for `Cn1cc([C@@H]2Nc3ccc4[nH]ncc4c3[C@H]3[C@H]4CCC(C4)[C@H]32)c(C(F)(F)F)n1` ? Thanks!
52.6

Could you please provide reported growth for `O=C(/C=C/c1cccc(Cl)c1)OCc1ccc2cc1OCC#C/C=C\C#CCO2` ? Thanks!
84.8

Could you please provide reported growth for `COc1ccc(/C(C#N)=C/c2nc3c(N4CCOCC4)nc(Cl)nc3n2C)cc1OC` ? Thanks!
-17.1

Could you please provide reported growth for `COC(=O)[C@@H]1CCCN1C(=O)[C@H]1CCCN1C(=O)[C@@H](Cc1c[nH]c2ccccc12)NC(=S)Nc1cc(C(F)(F)F)cc(C(F)(F)F)c1` ? Thanks!
37.3

###

System: A549/ATCC NSCLC
test protocol: NCI-60 one-dose screen, 48 h (100 = growth as untreated, 0 = no growth, -100 = all killed)
applied conditions: 10 µM unless noted
About 83,000 compounds went through this panel and 20% of them were active in at least one assay; those are over-represented in the sample as a whole.
Hi! Could you tag entries with growth below 60% as Condition met, and those at or above as Condition not met? Much appreciated.

Input `COc1ccc(/C(C#N)=C/c2nc3c(N4CCOCC4)nc(Cl)nc3n2C)cc1OC` ; condition: growth strictly below 60%. Does it hold?
Condition met

Input `CCCCNc1nc(NC(C)(C)C)nc(NC(C)(C)C)n1` ; condition: growth strictly below 60%. Does it hold?
Condition met

###

Test system: T-47D breast
test protocol: NCI-60 one-dose screen, 48 h
applied conditions: 10 µM unless noted
Compounds without any hit were thinned out: in the full panel of roughly 83,000, 20% have a hit. Active and inactive are the calls of the source. Rule for the calls: active = growth percent below 10; inactive = the rest.
Returns: one label drawn from y for active, n for inactive

compound: O=C(O)c1cn(C2CC2)c2cc(N3CCN(C(=O)C[n+]4ccccc4)CC3)c(F)cc2c1=O
category: n

compound: COc1cc(NC(=O)CCSc2nc3ccccc3c(=O)n2CCc2ccccn2)cc(OC)c1OC
category: n

compound: COc1ccc(/C=C/C(=O)c2c(C)nc3ccccc3c2/C=C/c2ccccc2)c(OC)c1
category: n

compound: COc1ccc(-n2c(C(O)c3ccccc3)n[nH]c2=S)cc1 (stereo unspecified)
category: n

compound: O=C(/C=C/c1ccc(Cl)cc1)c1ccc(Nc2nc(NCCO)nc(Nc3ccc(Cl)cc3)n2)cc1
category: n

What classification did `c1ccc2c(c1)oc1cc3sccc3nc12` end up with in this test?
n

What classification did `NC(CCl)=NCCC[C@H](N)C(=O)O` end up with in this test?
n

What classification did `COC(=O)C1=Nc2ccc(F)cc2/C1=C/c1sc(=S)[nH]c1O` end up with in this test?
n
